# experimental_system: PI3K alfa (Homo sapiens, UniProt P42336)
# Construct: for the p110-a subunit (with a deletion of the first 20 amino acids); His tag (C); made in house; host or cells: baculovirus; Tn5 (Trichoplusia ni) or TiniPro insect cells
# Sequence (P42336 with tags, fused parts or gaps limits assumed): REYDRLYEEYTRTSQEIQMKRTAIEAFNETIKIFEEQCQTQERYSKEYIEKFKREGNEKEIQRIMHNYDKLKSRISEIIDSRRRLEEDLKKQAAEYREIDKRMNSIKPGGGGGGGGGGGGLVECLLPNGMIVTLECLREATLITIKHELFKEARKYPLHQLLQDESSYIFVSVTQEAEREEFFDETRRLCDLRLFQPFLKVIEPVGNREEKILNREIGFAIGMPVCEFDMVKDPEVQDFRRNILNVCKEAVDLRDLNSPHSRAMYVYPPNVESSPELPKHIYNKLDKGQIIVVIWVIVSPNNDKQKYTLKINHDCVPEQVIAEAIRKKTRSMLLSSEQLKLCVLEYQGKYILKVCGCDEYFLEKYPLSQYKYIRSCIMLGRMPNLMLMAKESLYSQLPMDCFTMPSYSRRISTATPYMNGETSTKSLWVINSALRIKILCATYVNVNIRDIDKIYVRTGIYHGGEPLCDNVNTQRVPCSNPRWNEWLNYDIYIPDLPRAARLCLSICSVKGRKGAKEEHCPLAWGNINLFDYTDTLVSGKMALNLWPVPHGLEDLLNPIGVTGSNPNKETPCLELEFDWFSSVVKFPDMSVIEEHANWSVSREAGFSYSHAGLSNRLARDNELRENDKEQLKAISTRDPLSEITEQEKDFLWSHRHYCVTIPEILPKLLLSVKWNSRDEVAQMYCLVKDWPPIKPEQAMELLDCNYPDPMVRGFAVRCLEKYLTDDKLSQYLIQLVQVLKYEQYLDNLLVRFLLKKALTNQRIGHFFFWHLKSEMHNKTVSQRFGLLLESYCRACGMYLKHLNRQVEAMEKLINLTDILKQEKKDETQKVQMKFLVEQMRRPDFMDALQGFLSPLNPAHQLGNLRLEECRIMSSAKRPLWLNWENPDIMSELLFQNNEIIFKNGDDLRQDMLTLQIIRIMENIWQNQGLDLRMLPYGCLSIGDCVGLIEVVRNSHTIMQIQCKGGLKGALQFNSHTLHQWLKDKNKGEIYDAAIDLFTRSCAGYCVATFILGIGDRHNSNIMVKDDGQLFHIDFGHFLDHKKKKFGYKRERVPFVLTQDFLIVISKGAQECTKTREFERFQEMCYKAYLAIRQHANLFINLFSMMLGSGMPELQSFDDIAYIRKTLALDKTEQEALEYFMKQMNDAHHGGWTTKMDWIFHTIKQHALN
# test_name: PI3 kinase assay (Kinase-Glo luminescence), PI3K alfa
# Type: biochemical
# experimental_setup: Enzymatic Data; read-out: PI3K alfa IC50 [umol]
measured_metric: IC50 (nM)
I only need the number, in nM, no unit after it.

Query COc1ccccc1-c1ccn2ncc(-c3ccc(C(N)=O)cc3)c2n1 yields IC50 of 3900

Query CCS(=O)(=O)c1ccc(-c2cnc3ccc(-c4cnc(N)c(C(F)(F)F)c4)nn23)cc1 yields IC50 of 63

Query COc1ccc(-c2ccc3ncc(-c4cnc5[nH]ccc5c4)n3n2)cc1F yields IC50 of 1620

Query Nc1ncc(-c2ccc3ncc(-c4ccc(S(=O)(=O)CCN5CCOCC5)cc4)n3n2)cc1C(F)(F)F yields IC50 of 24

###

# experimental_system: PI3K alfa (Homo sapiens, UniProt P42336)
# Construct: for the p110-a subunit (with a deletion of the first 20 amino acids); His tag (C); made in house; host or cells: baculovirus; Tn5 (Trichoplusia ni) or TiniPro insect cells
# test_name: PI3 kinase assay (Kinase-Glo luminescence), PI3K alfa
# Format: biochemical
# experimental_setup: Enzymatic Data; read-out: PI3K alfa IC50 [umol]
Attribute: pIC50
# pIC50: negative log10 of molar concentration; output just the value

1. Nc1ncc(-c2ccc3ncc(-c4ccc(CO)cc4)n3n2)cc1C(F)(F)F
7.96
2. CNc1ncc(-c2cnc3ccc(-c4cnc(N)c(C(F)(F)F)c4)nn23)cn1
7.54

Continue with the next molecule.
Query NCCCOc1ccc(-c2cnc3ccc(-c4cnc(N)c(C(F)(F)F)c4)nn23)cc1 yields pIC50 of 6.82

###

# experimental_system: PI3K delta (Homo sapiens)
# Construct: for the full-length p110-d subunit are generated and fused by overlapping PCR; His tag (C); Tn5 (Trichoplusia ni) or TiniPro insect cells
# Sequence (O00329 with tags, fused parts or gaps limits assumed): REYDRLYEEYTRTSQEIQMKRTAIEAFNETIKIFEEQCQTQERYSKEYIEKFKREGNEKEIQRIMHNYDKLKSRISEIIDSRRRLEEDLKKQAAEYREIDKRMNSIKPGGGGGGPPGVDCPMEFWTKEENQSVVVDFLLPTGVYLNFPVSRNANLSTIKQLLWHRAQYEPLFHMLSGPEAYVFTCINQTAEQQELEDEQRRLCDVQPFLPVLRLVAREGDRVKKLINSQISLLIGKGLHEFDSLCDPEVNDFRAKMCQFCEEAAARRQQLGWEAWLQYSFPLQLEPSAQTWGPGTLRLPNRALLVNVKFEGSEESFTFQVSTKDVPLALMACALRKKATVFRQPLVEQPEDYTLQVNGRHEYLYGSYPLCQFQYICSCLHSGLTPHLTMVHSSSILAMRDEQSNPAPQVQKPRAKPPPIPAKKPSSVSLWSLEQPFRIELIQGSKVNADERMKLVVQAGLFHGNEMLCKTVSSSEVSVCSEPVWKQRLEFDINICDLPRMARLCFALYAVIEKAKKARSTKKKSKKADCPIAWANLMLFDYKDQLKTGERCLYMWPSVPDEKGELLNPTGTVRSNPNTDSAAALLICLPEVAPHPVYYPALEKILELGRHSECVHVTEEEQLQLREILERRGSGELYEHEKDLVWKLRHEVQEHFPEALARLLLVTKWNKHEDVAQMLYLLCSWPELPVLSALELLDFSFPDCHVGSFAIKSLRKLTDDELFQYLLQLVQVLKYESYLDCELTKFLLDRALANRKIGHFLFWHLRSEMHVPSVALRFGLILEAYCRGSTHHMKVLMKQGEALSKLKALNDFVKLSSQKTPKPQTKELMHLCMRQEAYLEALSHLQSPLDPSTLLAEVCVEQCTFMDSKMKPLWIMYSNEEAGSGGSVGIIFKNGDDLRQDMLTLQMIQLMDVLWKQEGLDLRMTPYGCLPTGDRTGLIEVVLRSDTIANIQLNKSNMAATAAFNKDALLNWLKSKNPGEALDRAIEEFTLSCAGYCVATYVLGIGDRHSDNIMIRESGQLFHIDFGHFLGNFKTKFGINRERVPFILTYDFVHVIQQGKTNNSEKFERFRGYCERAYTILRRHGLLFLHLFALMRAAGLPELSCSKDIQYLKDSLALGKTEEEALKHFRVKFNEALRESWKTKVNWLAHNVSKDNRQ
# test_name: PI3 kinase assay (Kinase-Glo luminescence), PI3K delta
# experimental_setup: Enzymatic Data; read-out: PI3K delta IC50 [umol]
pIC50: −log10 of the molar value.
Mark not met for pIC50 values under 7, and met for everything at or above.

Query :: For this compound, is measured pIC50 7 or higher? Nc1cnc(-c2cnc3ccc(-c4cnc(N)c(C(F)(F)F)c4)nn23)cn1 [Example 66]
Result :: met

Query :: For this compound, is measured pIC50 7 or higher? Nc1ncc(-c2cnc3ccc(-c4ccc(OC5CCNCC5)cc4)nn23)cc1C(F)(F)F [Example 165]
Result :: not met

Query :: For this compound, is measured pIC50 7 or higher? CC(C)C(=O)NCCCOc1ccc(-c2ccc3ncc(-c4cnc(N)c(C(F)(F)F)c4)n3n2)cc1OC(F)(F)F [Example 64]
Result :: not met

Query :: For this compound, is measured pIC50 7 or higher? COc1ccc(-c2ccc3ncc(-c4cnc5[nH]ccc5c4)n3n2)cc1 [Example 47]
Result :: not met

Query :: For this compound, is measured pIC50 7 or higher? COc1cc(-c2cnc3ccc(-c4cnc(N)c(C(F)(F)F)c4)nn23)ccc1OCCCNC(=O)OC(C)(C)C [Example 36]
Result :: not met
